# Test system: T-47D breast
# EXPERIMENT: NCI-60 one-dose screen, 48 h
# EXPERIMENTAL PARAMETERS: 10 µM unless noted
About 83,000 compounds went through this panel and 20% of them were active in at least one assay; those are over-represented in the sample as a whole. Activity calls are given as the source filed them. The calls were made as follows: active = growth percent below 10; inactive = the rest.
Give your call using only these classes: Y = active, N = inactive

Examples from the recorded data:
Dear all, I need the recorded test outcome for "O=C1/C(=C/c2ccc(O)cc2)COc2ccc(O)cc21" , thank you. N

What about "O=C(Nc1ccc(I)cc1F)c1cc(Cl)ccc1O" ? Y

What about this compound? "Cc1cc(Nc2ccc(OCc3ccccc3)cc2)nc2cc(O)ccc12" N

Now the compound O=CCCCC(O)C=O (stereo unspecified) N

Would you mind doing "Cc1c(C(=O)OCCO)cc(-c2ccc(Cl)cc2)n1-c1ccc(Cl)cc1Cl" as well? N

Repeat for the following compound: Cc1nn(-c2nc3ccccc3[nH]2)c2c1C(c1ccc(OCC(N)=O)cc1)CC(=O)N2 (stereo unspecified) N

More entries:
# fetch the recorded call for "C=C[C@@H]1CCC/C=C/[C@@H]2C[C@H](O)C[C@H]2[C@H](O)/C=C/C(=O)O1" here Y

Repeat with "COc1cc(/C=C2\CCC/C(=C\c3cc(CN4CCCCC4)c(O)c(OC)c3)C2=O)cc(CN2CCCCC2)c1O" N

Okay, and "Cc1ccc(C(=O)c2oc3ccc4c(C)cc(=O)oc4c3c2C)cc1" ? N

Try "O=C(Nc1ccc(Cl)cc1F)c1cc(Br)ccc1O" next. Y

Another compound to check: "Nc1ccc(-n2c(=O)oc3ccc(Cl)cc3c2=O)c(Cl)c1" Y

* * *

# Tested on: TK-10 renal
# EXPERIMENT: NCI-60 one-dose screen, 48 h
# EXPERIMENTAL PARAMETERS: 10 µM unless noted
Compounds without any hit were thinned out: in the full panel of roughly 83,000, 20% have a hit. Active and inactive are the calls of the source. How the source made its calls: active means growth percent below 10; inactive means the rest.
Would you mind answering with one of these outcomes? active, inactive

Record excerpt, results attached:
Dear colleague, could you share the recorded outcome for "COc1ccc(/C=C2/SC(=O)N(CC(=O)N3CCN(c4cc5c(cc4F)c(=O)c(C(=O)O)cn5C4CC4)CC3)C2=O)cc1" when you have a moment? inactive

Entry to check: COc1ccc(C2Nc3nc(OC)n(C)c(=O)c3N=C3c4ccccc4C(=O)C32)cc1 (stereo not given) inactive

What about this molecule? "NC1(N2SC(S)=C3CCCC=C32)CCCCC1" inactive

Same again, this time with COc1cc(C2CC(c3ccc(Nc4nc(NCCO)nc(N5CCOCC5)n4)cc3)=NN2c2cc(Cl)cc(Cl)c2)cc(OC)c1OC (stereo not given) inactive

Also, "CCOc1ccc2c(c1)CN(Cc1ccc(Cl)cc1)CO2" please. inactive

Next:
So what was the verdict on "FC(F)(F)c1cccc(CNC2CCN(CCc3ccccc3)CC2)c1" in this test? inactive

Proceed to CCCCC(O)(c1ccc(Cl)cc1)C(CN1CCOCC1)c1ccc(Cl)cc1 (stereo not given) inactive

Now try "Cc1cc2c(c(C)c1Cl)C(=O)/C(=C/c1ccco1)O2" . inactive

Next: "Cc1ccc(OCCCCCCNCCO)c(C)c1" inactive

Another molecule to look at: "O=C(Nc1ccc(N2CCNCC2)cc1)c1[nH]ncc1Nc1ncnc2sc3c(c12)CCC3" active

* * *

# Tested on: HOP-62 NSCLC
# EXPERIMENT: NCI-60 one-dose screen, 48 h
# EXPERIMENTAL PARAMETERS: 10 µM unless noted
About 83,000 compounds went through this panel and 20% of them were active in at least one assay; those are over-represented in the sample as a whole. The source made the active and inactive calls. The calls were made as follows: active = growth percent below 10; inactive = the rest.
Your reply should match one of these outcome classes. active, inactive

Fill in: this test's call for O=C(Nc1ncc(Cc2cccc(C(F)(F)F)c2)s1)C1COc2ccccc2O1 (stereo not given) is ___ inactive

Now this one: "O=c1c(-c2nc3ccccc3[nH]2)cc2ccccc2n1Cc1cn(Cc2ccccc2Cl)nn1" inactive

Then this molecule: CC1(O)COCCCCOc2c(CN)cccc2NC(=O)c2nc(cnc2N)-c2ccc(cc2)S(=O)(=O)C(C)(C)C1 (stereo not given) active

Same question for "CCOc1c(Br)cc(C2C(C(=O)OC)=CN(C)C=C2C(=O)OC)cc1OC" please. inactive

Another molecule: "O=C(Nc1ccc(Cl)cc1F)c1cc(I)ccc1O" inactive

***
For "O=C(Nc1ccc(Cl)cc1F)c1cc(Br)ccc1O" , which call appears in the assay record? active

// same read-out, input: "O=C(Cn1cc(COc2ncnc3c2cnn3-c2ccccc2)nn1)Nc1cccc2ccccc12" inactive

Field entry: "Cc1cccc2c(=O)c3c(sc12)c(N1CCNCC1)nc1ccccc13" inactive

Try this molecule too: CCOC(=O)C1=C(C)N=c2s/c(=C\c3ccccc3O)c(=O)n2C1c1ccc(OC)c2ccccc12 (stereo not given) inactive

Same for "Nc1no[n+]([O-])c1-c1nnc2c(n1)-c1ccccc1C2=O" inactive

* * *

# Test system: DU-145 prostate
# EXPERIMENT: NCI-60 one-dose screen, 48 h (100 = growth as untreated, 0 = no growth, -100 = all killed)
# EXPERIMENTAL PARAMETERS: 10 µM unless noted
Compounds without any hit were thinned out: in the full panel of roughly 83,000, 20% have a hit. Activity calls are given as the source filed them. Rule for the calls: active = growth percent below 10; inactive = the rest.
Consider the following compounds and their measured growth readings.

Any idea what its growth is? The compound is "COc1ccc(C2=Nn3c(NN)nnc3SC2)cc1" 103% (inactive)

Continue with "O=C1c2cc(I)ccc2Oc2cc([N+](=O)[O-])ccc2N1c1ccc(Cl)cc1F" 97.9% (inactive)

Proceed to CC(=Nc1ccccc1)C1=C(O)C(Cc2ccc(F)cc2)NC1=O (centres undefined) 8.32% (active)

Then this compound: "COc1ccc2sc(N(Cc3cccnc3)C(=O)c3ccc(C#N)cc3)nc2c1" 93.5% (inactive)

Continuing:
Field request: growth | item: "Oc1ccc(-c2nc(-c3ccc4oc5ccc(-c6[nH]c(-c7ccc(O)cc7)nc6-c6ccccc6)cc5c4c3)c(-c3ccccc3)[nH]2)cc1" 89% (inactive)

Next: "COC(=O)/C(=C\c1c(C)[nH]c2ccccc12)S(=O)(=O)c1ccccc1" -53.4% (active)

Another: "O=C(/C=C/c1ccccn1)c1ccc(OCc2nnc(-c3ccc(Cl)cc3)o2)cc1" 23.8% (inactive)

Repeat for the following compound: COc1c(B(O)O)cccc1-c1nc2ccc3[nH]ncc3c2c2c1C1CCC2C1 (centres undefined) 72.3% (inactive)

Now try "CC(C)C[C@H](C(=O)N[C@H](C(N)=O)C(C)C)N1CC=CCN(OCc2ccccc2)S1(=O)=O" . 131% [2.5 µM] (inactive)

* * *

# System: HCC-2998 colon
# EXPERIMENT: NCI-60 one-dose screen, 48 h (100 = growth as untreated, 0 = no growth, -100 = all killed)
# EXPERIMENTAL PARAMETERS: 10 µM unless noted
This is part of a sample that, as a whole, favours compounds with a hit. Of some 83,000 tested, about 20% had one in any assay.
Assign t to entries whose growth meets or exceeds 20%; assign f to the rest.

Examples from the recorded data:
Is reported growth greater than or equal to 20% here: "COc1ccc(S(=O)(=O)N(Cc2ccc3c(n2)C=CC(C)(C)O3)C2CCC2)cc1OC" f

Lookup "CC(=O)n1cc(-c2c[nH]c3ccccc23)c(-c2ccc(Cl)cc2)n1" t

Next entry: CCOc1cc(Cl)c(C(C)NC(=O)c2cccc(OC)c2)cc1OCC (stereo not given) f

Pending compound:
API: above_or_equal(metric=growth, cutoff=20%) for item "O=C(N/N=C/c1ccccc1Cl)C(=O)Nc1cccc(C(F)(F)F)c1" t

* * *

# Tested on: LOX IMVI melanoma
# EXPERIMENT: NCI-60 one-dose screen, 48 h (100 = growth as untreated, 0 = no growth, -100 = all killed)
# EXPERIMENTAL PARAMETERS: 10 µM unless noted
# Experimental: Growth inhibition of the LOX IMVI human tumor cell line is measured as a screen for anti-cancer activity. Cells are grown in 96 well plates and exposed to the test compound for 48 hours. Compounds are tested at a single concentration, which is 10^-5 M for most compounds. The reported endpoint is percent growth (GI% or GIPRCNT), where numbers from 0 - 100% represent growth inhibition, and numbers from -100% - 0 represent cell death. For example, a value of 40 represents 60% growth inhibition. […]
Compounds without any hit were thinned out: in the full panel of roughly 83,000, 20% have a hit.
growth listing for selected compounds.
Form entry: value (%) — number only.

Consider the reported growth for these compounds:
Field request: growth | item: "COc1ccc(/C=C/C(=O)c2c(C)nc3ccccc3c2/C=C/c2ccccc2)c(OC)c1" 83.8

Same question, "CC(=O)c1ccc(NC(=O)Nc2ccc(S(=O)(=O)Nc3ccc(Cl)nn3)cc2)cc1" this time 99

Same read-out for "O=c1c(-c2nc3ccccc3[nH]2)cc2ccccc2n1Cc1cn(Cc2ccc(N3CCOCC3)cc2)nn1" ? 78.7

Could you do the same for "CCN(CCO)CCNc1ccc(C)c2sc3cc(Cl)ccc3c(=O)c12" , please? -94.8

Follow-up entry: "COc1ccc(CCN2C(=O)CCSC2=S)cc1" 8

Continuing:
Requested field: growth. Item: "O=c1oc2ccc(I)cc2c(=O)n1-c1ccc(I)cc1F" 4.98

Check "Cc1cc2c(c(C)c1Cl)C(=O)/C(=C/c1cccc([N+](=O)[O-])c1)O2" too. 102

Further, for "COc1cc(-c2c3c(c(Br)n2Cc2ccccc2)-c2nc(N)sc2CC3)cc(OC)c1OC" ? 87.5
